# tested-on: human LTBR on cells (human, UniProt P36941 31-435)
# experiment-summary: cell-based or functional assay
property-name: NFκB luc, 15000 ng/ml, w/o x linker (RLU)
Write the number in RLU without appending the unit.

For the binder P1AE9450 (antibody, human IgG1, kappa, L234A L235A, V domains shown, human IgG1 PG LALA; from transgenic rabbit immunization; also called LTBR (9450)) VH: EVQLLESGGGLVQPGGSLRLSCAASGFTVSSYVMKWFRQAPGKGLEWVSSISGSGGRPFYADSVKGRFTISRDNSKNALYLQMNSLRAEDTAVYYCANDMDVWGQGTTVTVSS VL: DIQMTQSPSSLSASVGDRVTITCRASQDISSFLKWYQQKPGKAPTLLIYAASALQSGVPSRFSGSGSGTDFTLTISSLQPEDFATYYCQQYNTYPLTFGGGTKVDIKR , report NFκB luc, 15000 ng/ml, w/o x linker.
19100

For the binder P1AF0079 (antibody, human IgG1, kappa, L234A L235A, V domains shown, human IgG1 PG LALA; from transgenic rabbit immunization; also called LTBR (0079)) VH: EVQLLESGGALVQPGGSLRLSCAASGFTFSSYAMSWVRQAPGKGLEWVSVITGSSSSIDYADSVKGRFTISRDNSKNTLYLQMNSLRAEDTAVYYCAKGGSGVWSISTDFDYWGQGTLVTVSS VL: DIQMTQSPSFLSASVGDRVTITCQASQDISNYLNWYQQKPGKAPKHLIYAASSLHSGVPSRFSGSGSGAYFTLTITSLQPEDFATYYCQQSHSTPPTFGPGTKVDIKR , report NFκB luc, 15000 ng/ml, w/o x linker.
13600

For the binder P1AE9457 (antibody, human IgG1, kappa, L234A L235A, V domains shown, human IgG1 PG LALA; from transgenic rabbit immunization; also called LTBR (9457)) VH: EVQLLESGGGLVQPGGSLRLSCAASGFTFSNYAMTWVRQAPGKGLEWVSEISGSGGSTYYADSVKGRFTISRDNSKNTLYLQMNSLRAEDTAVYYCAKDDDGAYGDTMDVWGQGTTVTVSS VL: DIQMTQSPSSLSASIGDRVTITCRASQDISNYLNWYQQKPGKAPKLLIYAASALQSGVPSRFSGSGSGTDFTLTISSLQPEDFATYYCQHYKSYPYTFGQGTKVEIRR , report NFκB luc, 15000 ng/ml, w/o x linker.
15600
